Hello, the source for this data is patent US20250074901A1, in case you need it.

target under test: Kv7.2 (Homo sapiens)
measurement description: Activation of Kv7.2 (in vitro assay, concentration response curve)
measurement conditions: activation of Kv7.2
Simple rule here: EC50 less than 2000 nM is 1, otherwise -1.

Reference set, count: 8
compound=C[Si](C)(C)CCNC(=O)NCc1ccnc(OC(F)F)c1 category=1
compound=O=C(NCc1ccnc(OCC(F)(F)F)c1)N[C@H]1C[C@H](C(F)F)C1 category=1
compound=Cc1cccc(NC(=O)NCc2ccnc(OC(F)F)c2)c1 category=1
compound=CC(F)(F)COc1cc(CNC(=O)NC23CC(F)(C2)C3)ccn1 category=1
compound="O=C(NCc1ccnc(OC(F)F)c1)NC1C[C@@H](F)[C@@H](F)C1 (mixture of isomers)" category=-1
compound="O=C(NCc1ccnc(OCC(F)CF)c1)N[C@H]1C[C@H](C(F)(F)F)C1 (some centres unmarked)" category=1
compound="O=C(NCc1ccnc(OC(F)F)c1)N[C@H]1CCC[C@H]1O (racemic)" category=-1
compound=O=C(NCc1ccnc(OC(F)F)c1)NC1CC(F)(F)C1 category=-1

-- ask Strictly below 2000 nM: is that where EC50 of C[C@]1(O)CCC[C@@H]1NC(=O)NCc1ccnc(OC(F)F)c1 sits?
-- reply 1

-- ask Identify whether the compound O=C(NCc1ccnc(OC(F)F)c1)N[C@H]1C[C@@H](C(F)(F)F)C1 records EC50 below 2000 nM.
-- reply 1

-- ask Is EC50 strictly under 2000 nM for the entry O=C(NCc1ccnc(CC(F)(F)F)c1)Nc1ccc(F)c(F)c1 ?
-- reply 1
